- Test method notes: Phase 1 plasma pharmacokinetics
- Format: in vivo, human
- Stated conditions: human, plasma, oral, 40 mg, AUC0-t, Mean ± SD, abexinostat continuous administration (BID, 4-h interval) on C1D1, 40 mg (n = 4)
Readout name: AUC(0-t) (ng·h/mL)
Numbers only, in ng·h/mL.

Per the record, `CN(C)Cc1c(C(=O)NCCOc2ccc(C(=O)NO)cc2)oc2ccccc12` has AUC(0-t) of 339

* * *

- Test method notes: Phase 1 plasma pharmacokinetics
- Assay type: in vivo, human
- Stated conditions: human, plasma, oral, 60 mg, Tmax, Median, abexinostat continuous administration (BID, 4-h interval) on C1D7, 60 mg (n = 3)
Readout name: Tmax (min)
Numbers only, in min.

// Tmax value for `CN(C)Cc1c(C(=O)NCCOc2ccc(C(=O)NO)cc2)oc2ccccc12` : 28.8

* * *

- Test method notes: Phase 1 plasma pharmacokinetics
- Type: in vivo, human
- Stated conditions: human, plasma, oral, 80 mg, Tmax, Median, abexinostat continuous administration (BID, 4-h interval) on C1D1, 80 mg (n = 4), plasma; abexinostat value footnoted: 0.97 h after second dose
Readout name: Tmax (h)
One number for each entry, in h.

Item: `CN(C)Cc1c(C(=O)NCCOc2ccc(C(=O)NO)cc2)oc2ccccc12` | Tmax: 4.78

* * *

- Test method notes: Phase 1 plasma pharmacokinetics
- Assay type: in vivo, human
- Stated conditions: human, plasma, oral, 80 mg, T1/2, Median, abexinostat continuous administration (BID, 4-h interval) on C1D1, 80 mg (n = 4)
Readout name: half-life (min)
Numbers only, in min.

Item: `CN(C)Cc1c(C(=O)NCCOc2ccc(C(=O)NO)cc2)oc2ccccc12` | half-life: 308

* * *

- Test method notes: Phase 1 plasma pharmacokinetics
- Type: in vivo, human
- Stated conditions: human, plasma, oral, 40 mg, Tmax, Median, abexinostat continuous administration (BID, 4-h interval) on C1D1, 40 mg (n = 4)
Readout name: Tmax (h)
Give bare numbers, in h.

For reference, reported Tmax for `CN(C)Cc1c(C(=O)NCCOc2ccc(C(=O)NO)cc2)oc2ccccc12` stands at 1

* * *

- Test method notes: Phase 1 plasma pharmacokinetics
- Assay type: in vivo, human
- Stated conditions: human, plasma, oral, 40 mg, AUC0-∞, Mean ± SD, abexinostat continuous administration (BID, 4-h interval) on C1D1, 40 mg (n = 4)
Readout name: AUC(0-inf)

get_value(item= `CN(C)Cc1c(C(=O)NCCOc2ccc(C(=O)NO)cc2)oc2ccccc12` , readout=AUC(0-inf)) returns 361 ng·h/mL

* * *

- Test method notes: Phase 1 plasma pharmacokinetics
- Format: in vivo, human
- Stated conditions: human, plasma, oral, 80 mg, AUC0-t, Mean ± SD, abexinostat continuous administration (BID, 4-h interval) on C1D7, 80 mg (n = 4)
Readout name: AUC(0-t) (ng·h/mL)
Answers are plain numbers, in ng·h/mL.

# molecule `CN(C)Cc1c(C(=O)NCCOc2ccc(C(=O)NO)cc2)oc2ccccc12` ; its AUC(0-t) = 767

* * *

- Test method notes: Phase 1 plasma pharmacokinetics
- Assay type: in vivo, human
- Stated conditions: human, plasma, oral, 60 mg, AUC0-t, Mean ± SD, abexinostat continuous administration (BID, 4-h interval) on C1D7, 60 mg (n = 3)
Readout name: AUC(0-t) (ng·h/mL)
One number for each entry, in ng·h/mL.

The recorded AUC(0-t) for `CN(C)Cc1c(C(=O)NCCOc2ccc(C(=O)NO)cc2)oc2ccccc12` is 600
